- Tested on: Mycobacterium tuberculosis
- assay_overview: Antimycobacterial activity against dormant stage of Mycobacterium tuberculosis H37Ra ATCC 25177 at 3 to 30 ug/ml by XRMA relative to control
- Type: functional
The source made the active and inactive calls. No cut-off for these calls is given here.
readout_name: Activity

# count of solved cases: 4
{"columns": ["chem_smiles", "Activity"],
 "data": [
  ["c1ccc(-n2cc(C(c3c[nH]c4ccccc34)c3c[nH]c4ccccc34)nn2)cc1", "Active"],
  ["CC(=O)Nc1ccc(-n2cc(C(c3c[nH]c4ccccc34)c3c[nH]c4ccccc34)nn2)cc1", "Active"],
  ["CC(=O)Nc1ccc(-n2cc(C(c3c[nH]c4ccc(Br)cc34)c3c[nH]c4ccc(Br)cc34)nn2)cc1", ">87.18%"],
  ["Cc1ccc(-n2cc(C(c3c[nH]c4ccccc34)c3c[nH]c4ccccc34)nn2)cc1", "Active"]
]}

What reported Activity corresponds to `Clc1ccc(-n2cc(C(c3c[nH]c4ccccc34)c3c[nH]c4ccccc34)nn2)cc1` on Mycobacterium tuberculosis?
Active

Find Activity (Mycobacterium tuberculosis) for the entry `Clc1cccc(-n2cc(C(c3c[nH]c4ccc(Br)cc34)c3c[nH]c4ccc(Br)cc34)nn2)c1`
>87.18%

Short answer please: Activity, Mycobacterium tuberculosis, entry `O=[N+]([O-])c1ccccc1-n1cc(C(c2c[nH]c3ccc(Br)cc23)c2c[nH]c3ccc(Br)cc23)nn1`
>87.18%

Find Activity (Mycobacterium tuberculosis) for the entry `O=[N+]([O-])c1ccc(-n2cc(C(c3c[nH]c4ccccc34)c3c[nH]c4ccccc34)nn2)cc1`
Active

Return Activity measured with Mycobacterium tuberculosis given this compound: `O=[N+]([O-])c1cccc(-n2cc(C(c3c[nH]c4ccc(Br)cc34)c3c[nH]c4ccc(Br)cc34)nn2)c1`
>87.18%

Entry `COc1ccccc1-n1cc(C(c2c[nH]c3ccc(Br)cc23)c2c[nH]c3ccc(Br)cc23)nn1` , system Mycobacterium tuberculosis: what Activity was measured?
Active

Entry `O=[N+]([O-])c1ccc(-n2cc(C(c3c[nH]c4ccc(Br)cc34)c3c[nH]c4ccc(Br)cc34)nn2)cc1` , system Mycobacterium tuberculosis: what Activity was measured?
>87.18%

Requested read-out Activity, target or system Mycobacterium tuberculosis, entry `O=[N+]([O-])c1ccccc1-n1cc(C(c2c[nH]c3ccccc23)c2c[nH]c3ccccc23)nn1`
Active

Kindly state the measured Activity obtained for `Clc1ccc(-n2cc(C(c3c[nH]c4ccc(Br)cc34)c3c[nH]c4ccc(Br)cc34)nn2)cc1` with Mycobacterium tuberculosis.
>88.22%

* * *

- System: Mycobacterium tuberculosis
- assay_overview: Antimycobacterial activity against dormant stage of Mycobacterium tuberculosis H37Ra ATCC 25177 by XRMA
- Assay type: functional, organism-based
readout_name: IC50
Field note: include the unit after the figure.

{"columns": ["chem_smiles", "tgt", "IC50"],
 "data": [
  ["Brc1ccc2[nH]cc(C(c3cn(-c4ccccc4)nn3)c3c[nH]c4ccc(Br)cc34)c2c1", "Mycobacterium tuberculosis", "1.55 µg/mL"],
  ["CC(=O)Nc1ccc(-n2cc(C(c3c[nH]c4ccc(Br)cc34)c3c[nH]c4ccc(Br)cc34)nn2)cc1", "Mycobacterium tuberculosis", "1 µg/mL"],
  ["Clc1cccc(-n2cc(C(c3c[nH]c4ccc(Br)cc34)c3c[nH]c4ccc(Br)cc34)nn2)c1", "Mycobacterium tuberculosis", "0.12 µg/mL"]
]}

Please find the next compound below.
Requested read-out: IC50. Entry: `O=[N+]([O-])c1cccc(-n2cc(C(c3c[nH]c4ccc(Br)cc34)c3c[nH]c4ccc(Br)cc34)nn2)c1`
2.56 µg/mL

* * *

- System: Mycobacterium tuberculosis
- assay_overview: Antimycobacterial activity against dormant stage of Mycobacterium tuberculosis H37Ra ATCC 25177 by XRMA
- Type: functional, organism-based
readout_name: IC50 (µg/mL)
// note: answer is a bare numeric in µg/mL

Recorded IC50 of `O=[N+]([O-])c1ccccc1-n1cc(C(c2c[nH]c3ccc(Br)cc23)c2c[nH]c3ccc(Br)cc23)nn1` , please.
1

Any idea what IC50 was measured for `Clc1cccc(-n2cc(C(c3c[nH]c4ccccc34)c3c[nH]c4ccccc34)nn2)c1` ?
0.37

GET /values?readout=IC50&item= `O=[N+]([O-])c1ccc(-n2cc(C(c3c[nH]c4ccc(Br)cc34)c3c[nH]c4ccc(Br)cc34)nn2)cc1`
2.96

* * *

- Test system: Mycobacterium tuberculosis
- assay_overview: Antimycobacterial activity against active stage of Mycobacterium tuberculosis H37Ra ATCC 25177 at 3 to 30 ug/ml by XRMA relative to control
- Format: functional
Calls of active or inactive are those of the source. The rule behind the calls is not given here.
readout_name: Activity

Consider the worked cases shown below.
{"columns": ["chem_smiles", "readout_name", "measured"],
 "data": [
  ["Brc1ccc2[nH]cc(C(c3cn(-c4ccccc4)nn3)c3c[nH]c4ccc(Br)cc34)c2c1", "Activity", ">87.18%"],
  ["O=[N+]([O-])c1ccccc1-n1cc(C(c2c[nH]c3ccccc23)c2c[nH]c3ccccc23)nn1", "Activity", "Active"],
  ["Cc1ccc(-n2cc(C(c3c[nH]c4ccc(Br)cc34)c3c[nH]c4ccc(Br)cc34)nn2)cc1", "Activity", "Active"],
  ["CC(=O)Nc1ccc(-n2cc(C(c3c[nH]c4ccc(Br)cc34)c3c[nH]c4ccc(Br)cc34)nn2)cc1", "Activity", ">87.18%"],
  ["COc1ccccc1-n1cc(C(c2c[nH]c3ccccc23)c2c[nH]c3ccccc23)nn1", "Activity", "Active"],
  ["Cc1ccc(-n2cc(C(c3c[nH]c4ccccc34)c3c[nH]c4ccccc34)nn2)cc1", "Activity", "Active"]
]}

Hi! What's the reported Activity for `CC(=O)Nc1ccc(-n2cc(C(c3c[nH]c4ccccc34)c3c[nH]c4ccccc34)nn2)cc1` on Mycobacterium tuberculosis?
Active

Identify the measured Activity of `O=[N+]([O-])c1ccc(-n2cc(C(c3c[nH]c4ccccc34)c3c[nH]c4ccccc34)nn2)cc1` for Mycobacterium tuberculosis.
Active

* * *

Below, each entry is listed alongside its reported IC90.
- Tested on: Mycobacterium tuberculosis
- assay_overview: Antimycobacterial activity against active stage of Mycobacterium tuberculosis H37Ra ATCC 25177 by XRMA
- Type: functional, organism-based
State just the number; it will be interpreted in µg/mL.

{"columns": ["chem_smiles", "measured"],
 "data": [
  ["CC(=O)Nc1ccc(-n2cc(C(c3c[nH]c4ccc(Br)cc34)c3c[nH]c4ccc(Br)cc34)nn2)cc1", 6.16]
]}

// next entry
Any idea what its IC90 is? The compound is `Brc1ccc2[nH]cc(C(c3cn(-c4ccccc4)nn3)c3c[nH]c4ccc(Br)cc34)c2c1`
30

* * *

- Test system: Mycobacterium tuberculosis
- assay_overview: Antimycobacterial activity against active stage of Mycobacterium tuberculosis H37Ra ATCC 25177 by XRMA
- Format: functional, organism-based
Overview of recorded IC90 for various compounds
State just the number; it will be interpreted in µg/mL.

{"columns": ["compound", "IC90 (µg/mL)"],
 "data": [
  ["Clc1cccc(-n2cc(C(c3c[nH]c4ccc(Br)cc34)c3c[nH]c4ccc(Br)cc34)nn2)c1", 13.5]
]}

# evaluate next
Look up IC90: CO[C@H]1/C=C/O[C@@]2(C)Oc3c(C)c(O)c4c(O)c(c(/C=N/N5CCN(C)CC5)c(O)c4c3C2=O)NC(=O)/C(C)=C\C=C\[C@H](C)[C@H](O)[C@@H](C)[C@@H](O)[C@@H](C)[C@H](OC(C)=O)[C@@H]1C [RIFAMPIN]
0.53

* * *

- System: Mycobacterium tuberculosis
- assay_overview: Antimycobacterial activity against dormant stage of Mycobacterium tuberculosis H37Ra ATCC 25177 by XRMA
- Assay type: functional, organism-based
For each record, check the reported IC90: if it is below 9 µg/mL write criterion met, else write criterion not met.

Take a look at these entries with their results.
{"columns": ["compound", "tgt", "group_label"],
 "data": [
  ["O=[N+]([O-])c1ccc(-n2cc(C(c3c[nH]c4ccc(Br)cc34)c3c[nH]c4ccc(Br)cc34)nn2)cc1", "Mycobacterium tuberculosis", "criterion not met"],
  ["O=[N+]([O-])c1ccccc1-n1cc(C(c2c[nH]c3ccc(Br)cc23)c2c[nH]c3ccc(Br)cc23)nn1", "Mycobacterium tuberculosis", "criterion not met"],
  ["O=[N+]([O-])c1cccc(-n2cc(C(c3c[nH]c4ccc(Br)cc34)c3c[nH]c4ccc(Br)cc34)nn2)c1", "Mycobacterium tuberculosis", "criterion not met"],
  ["Clc1cccc(-n2cc(C(c3c[nH]c4ccc(Br)cc34)c3c[nH]c4ccc(Br)cc34)nn2)c1", "Mycobacterium tuberculosis", "criterion not met"],
  ["CC(=O)Nc1ccc(-n2cc(C(c3c[nH]c4ccc(Br)cc34)c3c[nH]c4ccc(Br)cc34)nn2)cc1", "Mycobacterium tuberculosis", "criterion met"],
  ["Brc1ccc2[nH]cc(C(c3cn(-c4ccccc4)nn3)c3c[nH]c4ccc(Br)cc34)c2c1", "Mycobacterium tuberculosis", "criterion not met"],
  ["Clc1cccc(-n2cc(C(c3c[nH]c4ccccc34)c3c[nH]c4ccccc34)nn2)c1", "Mycobacterium tuberculosis", "criterion not met"]
]}

Is 9 µg/mL strictly greater than the compound's reported IC90? compound: CO[C@H]1/C=C/O[C@@]2(C)Oc3c(C)c(O)c4c(O)c(c(/C=N/N5CCN(C)CC5)c(O)c4c3C2=O)NC(=O)/C(C)=C\C=C\[C@H](C)[C@H](O)[C@@H](C)[C@@H](O)[C@@H](C)[C@H](OC(C)=O)[C@@H]1C [RIFAMPIN]
criterion met

Values were extracted from ChEMBL document CHEMBL4257499.
